test system: HCT15; assay: Cell proliferation Ex.3; type: cell-based; conditions: Homo sapiens, HCT-15; HCT15, 120 h
pIC50: −log10 of the molar value.
Experimental Readout: pIC50

Which pIC50 value belongs to C#C[C@]1(CO)O[C@@H](n2cc(F)c(N)nc2=O)C[C@@H]1O [compound 9] ?
< 5.00

====

tested on: A549; assay: Cell proliferation CellTiterGlo Ex.2; format: cell-based; settings: Homo sapiens; A549 (Lung), 72 h
pIC50: −log10 of the molar value.
Experimental Readout: pIC50

Query (compound): C#C[C@]1(CO)O[C@@H](n2cnc3c(=O)[nH]c(N)nc32)C[C@@H]1O ; field requested: pIC50
< 5.00
